- measurementDescription: Pharmacokinetics of mannoheptulose, twice daily in a nutritionally-balanced composition, older Labrador Retrievers
- Format: in vivo, Labrador Retriever dogs
- testContext: female, Labrador Retriever, dog, plasma, oral, 2 mg/kg, twice daily, after the morning meal
reportedEndpoint: half-life (h)
Answer format: numeric, h implied, no suffix.

Entry O=C(CO)[C@@H](O)[C@@H](O)[C@H](O)[C@H](O)CO has what half-life?
5.42

Data provenance is patent US20090252834A1.
